Attribution: patent US20150051257A1

Test system: α1 (non-selective)
Measurement protocol: Radioligand binding assay, adrenergic α1 receptors
Study conditions: test compound 1×10^−6M; [3H]prazosin; rat cerebral cortex
Value kind: α1 [%] (%)

Consider the reported α1 [%] for these compounds:
Q. Supply reported α1 [%] belonging to this compound: COc1ccccc1CCNCc1cccc(NS(=O)(=O)c2ccc3ccccc3c2)c1 [Compound 9]
A. 56

Q. Supply reported α1 [%] belonging to this compound: COc1ccccc1OCCNCc1cccc(NS(=O)(=O)c2ccc3ccccc3c2)c1 [Compound 10]
A. 20

Q. Supply reported α1 [%] belonging to this compound: CN(CCCc1noc2cc(F)ccc12)Cc1cccc(NS(=O)(=O)c2ccc(C(C)(C)C)cc2)c1 [Compound 72]
A. 77

Q. Supply reported α1 [%] belonging to this compound: O=S(=O)(Nc1cccc(CNCCOc2cccc3[nH]ccc23)c1)c1cccc2ccccc12 [Compound 51]
A. 34

Q. Supply reported α1 [%] belonging to this compound: Cc1cccc(CCNCc2cccc(NS(=O)(=O)c3ccc4ccccc4c3)c2)c1 [Compound 8]
A. 17

Q. Supply reported α1 [%] belonging to this compound: COc1cccc(CCNCc2cccc(NS(=O)(=O)c3ccc4ccccc4c3)c2)c1 [Compound 11]
A. 18

Q. Supply reported α1 [%] belonging to this compound: CN(CCCc1noc2cc(F)ccc12)Cc1cccc(NS(=O)(=O)c2ccc(I)cc2)c1 [Compound 68]
A. 84

Q. Supply reported α1 [%] belonging to this compound: O=S(=O)(Nc1cccc(CNCCc2ccccc2)c1)c1ccc2ccccc2c1 [Compound 1]
A. 26

Q. Supply reported α1 [%] belonging to this compound: O=S(=O)(Nc1cccc(CNCCOc2cccc3[nH]ccc23)c1)c1ccc2ccccc2c1 [Compound 52]
A. 41

Q. Supply reported α1 [%] belonging to this compound: O=S(=O)(Nc1cccc(CNCCc2cccc(Cl)c2)c1)c1ccc2ccccc2c1 [Compound 6]
A. 53

1 = O=S(=O)(Nc1cccc(CNCCc2cccc(O)c2)c1)c1ccc2ccccc2c1 [Compound 17]
2 = COc1ccc(CCNCc2cccc(NS(=O)(=O)c3ccc4ccccc4c3)c2)cc1 [Compound 14]
Q. Please indicate which entry, 1 or 2 , has the lower recorded α1 [%] value. Give the label of your selection.
A. 2
